B1: TTC32 (parent)
chain: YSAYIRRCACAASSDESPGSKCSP

# Variants of: B1
# EXPERIMENT NOTES: protein stability index of a GFP-peptide fusion (GPS, HEK-293T) (PSI 1-6); higher = more stable;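 also: lentivirally expressed fusions sorted by FACS into six bins by GFP to DsRed ratio, PSI derived from sequencing read proportions per bin multiplied by bin number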
# MEASUREMENT CONTEXT: c terminus: a fixed tail appended
Please use Met whenever protein stability index is not below 3, and Not met whenever it is.

Field: example entries. Status: answers known.
>  <SEQ TEXT>
YSAYIRRCACAAMSDESPGSKCSP

>  <LABEL VALUE>
Not met

$$$$
>  <SEQ TEXT>
YSAYIRRCACAAVSDESPGSKCSP

>  <LABEL VALUE>
Not met

$$$$
>  <SEQ TEXT>
YSAYIRRCACAASKDESPGSKCSP

>  <LABEL VALUE>
Not met

$$$$
>  <SEQ TEXT>
YSAYIRRCACAAISDESPGSKCSP

>  <LABEL VALUE>
Not met

$$$$

Q: Can YSAYIRRCACAASSDEHPGSKCSP be said to have protein stability index at or above 3?
Result: Not met

Q: Threshold query (protein stability index >= 3) on YSAYIARCACAASSDESPGSKCSP
Result: Not met

Q: Decide: protein stability index of YSAYICRCACAASSDESPGSKCSP >= 3?
Result: Not met
